Give measured pIC50 for each item. Keep answers brief.
- STUDY SYSTEM: yeast proteasome β2/β2' (Saccharomyces cerevisiae, UniProt P25043)
- ASSAY DETAILS: Proteasome assay, trypsin-like activity (fluorogenic substrate Bz-Phe-Val-Arg-AMC)
- Type: biochemical, Saccharomyces cerivisiae
- Set-up: from tissue; host or cells: Saccharomyces cerevisiae (natural complex from yeast; I conclude this from 'proteasome from')
- APPLIED CONDITIONS: trypsin-like activity; Bz-Phe-Val-Arg-AMC 8 µM; inhibitor incubated 1 h at 37°C, Tris-buffer pH 7.5
Schema: pIC50 number; meaning minus log10 of the concentration expressed in molar units.

## Input Quick check: pIC50 of HOOC-(CH2)2-CO-NH-(PEG)19-25-NH-CO-(CH2)2-CO-Arg-Val-Arg-H [compound 5] ?
## Output 5.09

## Input Quick check: pIC50 of (PEG)19-25-[NH-CO-(CH2)2-CO-Arg-Val-Arg-H][NH-CO-(CH2)2-CO-Leu-Leu-Nle-H] [compound 7] ?
## Output 7.01

Source of measurements: patent EP0995757A2
